Entries annotated with measured Minimal Inhibitory Concentration (MIC) SPN P1
# Test system: Streptococcus pneumoniae P1
# assay-info: MIC, standard broth micro-dilution assay, SPN P1
# Format: cell-based

Past entries and their recorded results:
- compound: "CCCCc1ccc(NC(=S)N(C)C(CC(C)C)C(=O)NC2C(=O)NC(CC(N)=O)C(=O)NC3C(=O)NC4C(=O)NC(C(=O)NC(C(=O)O)c5cc(O)cc(O)c5-c5cc4ccc5O)C(OC4CC(C)(N)C(O)C(C)O4)c4ccc(c(Cl)c4)Oc4cc3cc(c4OC3OC(CO)C(O)C(O)C3OC3CC(C)(N)C(O)C(C)O3)Oc3ccc(cc3Cl)C2O)cc1 (stereo not shown) [Example 17]"
  reading: "≤ 0.06"
- compound: "CC(C)CC(C(=O)NC1C(=O)NC(CC(N)=O)C(=O)NC2C(=O)NC3C(=O)NC(C(=O)NC(C(=O)O)c4cc(O)cc(O)c4-c4cc3ccc4O)C(OC3CC(C)(N)C(O)C(C)O3)c3ccc(c(Cl)c3)Oc3cc2cc(c3OC2OC(CO)C(O)C(O)C2OC2CC(C)(NCc3ccc(-c4ccc(Cl)cc4)cc3)C(O)C(C)O2)Oc2ccc(cc2Cl)C1O)N(C)C(=S)Nc1ccccc1 (stereo not shown) [Example 22]"
  reading: "≤ .06"
- compound: "CC(C)CC(C(=O)NC1C(=O)NC(CC(N)=O)C(=O)NC2C(=O)NC3C(=O)NC(C(=O)NC(C(=O)O)c4cc(O)cc(O)c4-c4cc3ccc4O)C(OC3CC(C)(N)C(O)C(C)O3)c3ccc(c(Cl)c3)Oc3cc2cc(c3OC2OC(CO)C(O)C(O)C2OC2CC(C)(NCc3ccc(Cl)cc3)C(O)C(C)O2)Oc2ccc(cc2Cl)C1O)N(C)C(=S)Nc1cccc2ccccc12 (stereo not shown) [Example 6]"
  reading: "≤ 0.06"

Quick one: give measured Minimal Inhibitory Concentration (MIC) SPN P1 for CC(C)CC(C(=O)NC1C(=O)NC(CC(N)=O)C(=O)NC2C(=O)NC3C(=O)NC(C(=O)NC(C(=O)O)c4cc(O)cc(O)c4-c4cc3ccc4O)C(OC3CC(C)(N)C(O)C(C)O3)c3ccc(c(Cl)c3)Oc3cc2cc(c3OC2OC(CO)C(O)C(O)C2OC2CC(C)(NCc3ccc(Oc4ccccc4)cc3)C(O)C(C)O2)Oc2ccc(cc2Cl)C1O)N(C)C(=S)Nc1cccc2ccccc12 (stereo not shown) [Example 7] ≤ 0.06
